# ASSAY_DETAILS: in vivo
# RUN_CONDITIONS: female, CB-17 SCID, mouse, blood, oral, 200 mg/kg, Concentration, individual animals 1-3, blood, 200 mg/kg QD, 24 h
READOUT_TYPE: concentration at 24 h (ng/mL)
Dear colleague, please return just the value in ng/mL, with no unit written.

Short answer for `CS(=O)(=O)CCNCc1ccc(-c2ccc3ncnc(Nc4ccc(OCc5cccc(F)c5)c(Cl)c4)c3c2)o1` : concentration at 24 h was 28

* * *

# ASSAY_DETAILS: in vivo
# RUN_CONDITIONS: female, CB-17 SCID, mouse, kidney, oral, 200 mg/kg, Concentration, individual animals 1-3, kidney, 200 mg/kg QD, 96 h
READOUT_TYPE: concentration at 96 h (µg/mL)
Please give a number only; it is taken to be in µg/mL.

`CS(=O)(=O)CCNCc1ccc(-c2ccc3ncnc(Nc4ccc(OCc5cccc(F)c5)c(Cl)c4)c3c2)o1` yielded concentration at 96 h of 0.0499

* * *

# ASSAY_DETAILS: EGF10027 steady-state lapatinib concentrations in patient plasma and tumor
# Assay type: in vivo, human
# RUN_CONDITIONS: female, human, tumor, oral, 1500 mg, patients, median (range), 1500 mg QD (n = 3), steady state; read-out: Tumor Cmin
READOUT_TYPE: concentration at 24 h (nM)
Answer with a number only, understood to be in nM.

// concentration at 24 h lookup, compound = CS(=O)(=O)CCNCc1ccc(-c2ccc3ncnc(Nc4ccc(OCc5cccc(F)c5)c(Cl)c4)c3c2)o1 [lapatinib] , result: 2270

* * *

# ASSAY_DETAILS: EGF10027 steady-state lapatinib concentrations in patient plasma and tumor
# Format: in vivo, human
# RUN_CONDITIONS: female, human, plasma, oral, 1500 mg, patients, median (range), 1500 mg QD (n = 3), steady state; read-out: Plasma Cmin
READOUT_TYPE: concentration at 24 h (nM)
Quick reminder: number only, in nM, skip the unit.

The reported value for CS(=O)(=O)CCNCc1ccc(-c2ccc3ncnc(Nc4ccc(OCc5cccc(F)c5)c(Cl)c4)c3c2)o1 [lapatinib] in terms of concentration at 24 h is 390

* * *

# ASSAY_DETAILS: in vivo
# RUN_CONDITIONS: female, CB-17 SCID, mouse, liver, oral, 200 mg/kg, Concentration, individual animals 1-3, liver, 200 mg/kg QD, 4 h
READOUT_TYPE: concentration at 4 h (µg/mL)
Report as a plain number; the unit µg/mL is understood.

What the record says about `CS(=O)(=O)CCNCc1ccc(-c2ccc3ncnc(Nc4ccc(OCc5cccc(F)c5)c(Cl)c4)c3c2)o1` : concentration at 4 h is 223

* * *

# ASSAY_DETAILS: in vivo
# RUN_CONDITIONS: female, CB-17 SCID, mouse, BT474 tumor, po, 100 mg/kg, Cmax, single dose
READOUT_TYPE: Cmax (µg/mL)
Return type: number; implicit unit µg/mL.

So for `CS(=O)(=O)CCNCc1ccc(-c2ccc3ncnc(Nc4ccc(OCc5cccc(F)c5)c(Cl)c4)c3c2)o1` , the logged Cmax turned out to be 24.9

* * *

# ASSAY_DETAILS: in vivo
# RUN_CONDITIONS: female, CB-17 SCID, mouse, tumor, oral
READOUT_TYPE: half-life (h)
I only need the number, in h, no unit after it.

Just so you know, measured half-life for `CS(=O)(=O)CCNCc1ccc(-c2ccc3ncnc(Nc4ccc(OCc5cccc(F)c5)c(Cl)c4)c3c2)o1` came out at 15.6

* * *

# ASSAY_DETAILS: in vivo
# RUN_CONDITIONS: female, CB-17 SCID, mouse, kidney, po, 200 mg/kg, AUClast, 200 mg/kg QD, multiple doses
READOUT_TYPE: AUC(0-t) (µg·h/mL)
Your answer is read as µg·h/mL, so omit the unit and give the number.

CS(=O)(=O)CCNCc1ccc(-c2ccc3ncnc(Nc4ccc(OCc5cccc(F)c5)c(Cl)c4)c3c2)o1 [lapatinib] yielded AUC(0-t) of 1320

* * *

# ASSAY_DETAILS: in vivo
# RUN_CONDITIONS: female, CB-17 SCID, mouse, tumor, oral, 100 mg/kg, Concentration, individual animals 1-3, tumor, 100 mg/kg BID, 10 h
READOUT_TYPE: concentration at 10 h (µg/mL)
Respond with the bare value in µg/mL.

Measured concentration at 10 h of CS(=O)(=O)CCNCc1ccc(-c2ccc3ncnc(Nc4ccc(OCc5cccc(F)c5)c(Cl)c4)c3c2)o1 [lapatinib] : 59.2

* * *

# ASSAY_DETAILS: EGF10027 steady-state lapatinib concentrations in patient plasma and tumor
# Type: in vivo, human
# RUN_CONDITIONS: female, human, plasma, oral, 500 mg, patients, median (range), 500 mg BID (n = 5), steady state; read-out: Plasma Cmin
READOUT_TYPE: concentration at 12 h (nM)
Express the result in nM but write the number alone.

Input `CS(=O)(=O)CCNCc1ccc(-c2ccc3ncnc(Nc4ccc(OCc5cccc(F)c5)c(Cl)c4)c3c2)o1` . Output concentration at 12 h: 2750

* * *

# ASSAY_DETAILS: in vivo
# RUN_CONDITIONS: female, CB-17 SCID, mouse, liver, po, 200 mg/kg, MRTlast, 200 mg/kg QD, multiple doses
READOUT_TYPE: MRT last (h)
Enter your answer as a number in h; do not include the unit.

MRT last reading for CS(=O)(=O)CCNCc1ccc(-c2ccc3ncnc(Nc4ccc(OCc5cccc(F)c5)c(Cl)c4)c3c2)o1 [lapatinib] : 8.4

* * *

# ASSAY_DETAILS: in vivo
# RUN_CONDITIONS: female, CB-17 SCID, mouse, whole blood, po, 200 mg/kg, AUC 0–24, blood, median (range), n = 3, after third dose of 200 mg/kg QD
READOUT_TYPE: AUC(0-t) (µM·h)
A number alone suffices; assume µM·h.

The reported AUC(0-t) of the compound CS(=O)(=O)CCNCc1ccc(-c2ccc3ncnc(Nc4ccc(OCc5cccc(F)c5)c(Cl)c4)c3c2)o1 [lapatinib] was 739

* * *

# ASSAY_DETAILS: in vivo
# RUN_CONDITIONS: female, CB-17 SCID, mouse, blood, po, 200 mg/kg, AUClast, single dose
READOUT_TYPE: AUC(0-t)
Enter the number, and then the unit.

In plain terms, `CS(=O)(=O)CCNCc1ccc(-c2ccc3ncnc(Nc4ccc(OCc5cccc(F)c5)c(Cl)c4)c3c2)o1` has a documented AUC(0-t) of 88200 ng·h/mL

* * *

# ASSAY_DETAILS: in vivo
# RUN_CONDITIONS: female, CB-17 SCID, mouse, kidney, po, 100 mg/kg, MRTlast, 100 mg/kg BID, multiple doses
READOUT_TYPE: MRT last (h)
Write down the numeric answer in h and omit the unit.

GET /value?item= CS(=O)(=O)CCNCc1ccc(-c2ccc3ncnc(Nc4ccc(OCc5cccc(F)c5)c(Cl)c4)c3c2)o1 [lapatinib] &field=MRT last returns 8.4

* * *

# ASSAY_DETAILS: in vivo
# RUN_CONDITIONS: female, CB-17 SCID, mouse, liver, oral, 200 mg/kg, MRTlast, single dose
READOUT_TYPE: MRT last

Just so you know, measured MRT last for `CS(=O)(=O)CCNCc1ccc(-c2ccc3ncnc(Nc4ccc(OCc5cccc(F)c5)c(Cl)c4)c3c2)o1` came out at 9.4 h

* * *

# ASSAY_DETAILS: in vivo
# RUN_CONDITIONS: female, CB-17 SCID, mouse, liver, oral, 100 mg/kg, Concentration, individual animals 1-3, liver, 100 mg/kg BID, 48 h
READOUT_TYPE: concentration at 48 h (ng/mL)
Use ng/mL as the unit, but write only the number.

// sample CS(=O)(=O)CCNCc1ccc(-c2ccc3ncnc(Nc4ccc(OCc5cccc(F)c5)c(Cl)c4)c3c2)o1 [lapatinib] , its concentration at 48 h was 193

* * *

# ASSAY_DETAILS: in vivo
# RUN_CONDITIONS: female, CB-17 SCID, mouse, tumor, po, 200 mg/kg, AUC 0–24, tumor, median (range), n = 3, after third dose of 200 mg/kg QD
READOUT_TYPE: AUC(0-t) (µM·h)
Numbers only here, please. The scale is µM·h.

AUC(0-t) for `CS(=O)(=O)CCNCc1ccc(-c2ccc3ncnc(Nc4ccc(OCc5cccc(F)c5)c(Cl)c4)c3c2)o1` is 1950

* * *

# ASSAY_DETAILS: in vivo
# RUN_CONDITIONS: female, CB-17 SCID, mouse, liver, oral, 100 mg/kg, Concentration, individual animals 1-3, liver, 100 mg/kg BID, 96 h
READOUT_TYPE: concentration at 96 h
Units required after the number.

Measured concentration at 96 h of `CS(=O)(=O)CCNCc1ccc(-c2ccc3ncnc(Nc4ccc(OCc5cccc(F)c5)c(Cl)c4)c3c2)o1` : 0.0669 µg/mL
